- target-desc: Protein cereblon/Cyclin-dependent kinase 9 (Homo sapiens, UniProt P50750+Q96SW2)
- Sequence (P50750 whole entry, looked up): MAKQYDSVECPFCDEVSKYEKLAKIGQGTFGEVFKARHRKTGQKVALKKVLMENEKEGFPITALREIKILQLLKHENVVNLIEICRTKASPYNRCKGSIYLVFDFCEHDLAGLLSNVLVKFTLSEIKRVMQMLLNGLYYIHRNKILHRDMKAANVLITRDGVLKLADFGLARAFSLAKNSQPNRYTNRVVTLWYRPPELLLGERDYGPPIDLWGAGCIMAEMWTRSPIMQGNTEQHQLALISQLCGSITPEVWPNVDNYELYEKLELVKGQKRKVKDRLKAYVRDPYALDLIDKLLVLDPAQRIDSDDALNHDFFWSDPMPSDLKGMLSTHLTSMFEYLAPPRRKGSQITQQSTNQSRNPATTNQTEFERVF
- Sequence (Q96SW2 whole entry, looked up): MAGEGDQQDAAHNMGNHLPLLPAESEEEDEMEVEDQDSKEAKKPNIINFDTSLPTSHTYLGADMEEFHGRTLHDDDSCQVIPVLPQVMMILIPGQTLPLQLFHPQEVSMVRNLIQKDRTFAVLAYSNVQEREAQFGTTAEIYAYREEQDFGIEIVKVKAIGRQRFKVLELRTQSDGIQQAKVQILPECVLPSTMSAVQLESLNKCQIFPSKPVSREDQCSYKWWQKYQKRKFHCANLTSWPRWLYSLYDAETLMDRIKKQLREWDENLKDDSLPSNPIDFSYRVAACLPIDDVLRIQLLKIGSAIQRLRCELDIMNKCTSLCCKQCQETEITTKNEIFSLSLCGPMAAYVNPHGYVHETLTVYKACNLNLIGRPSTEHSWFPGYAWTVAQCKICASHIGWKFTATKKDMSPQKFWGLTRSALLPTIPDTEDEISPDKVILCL
- test: Protac activity at CDK9/CRBN in human HEK293 cells assessed as degradation of CDK9 at 0.01 to 10 uM incubated for 24 hrs by Western blot analysis
- Format: cell-based
- condition-parameters: dose 0.01-10 µM
The source made the active and inactive calls. The calls are words filed in the database; no cut-off is given here.
readout-label: Activity

{"molecule": "O=C(COc1ccc(CC(=O)Nc2cc(C3CCC3)[nH]n2)cc1)NCCCOCCOCCOCCCNc1cccc2c1C(=O)N(C1CCC(=O)NC1=O)C2=O (stereo not drawn)", "readout-label": "Activity", "result": "inactive"}
{"molecule": "O=C(CCCOc1ccc(CC(=O)Nc2cc(C3CCC3)[nH]n2)cc1)NCCCOCCOCCOCCCNc1cccc2c1C(=O)N(C1CCC(=O)NC1=O)C2=O (stereo not drawn)", "readout-label": "Activity", "result": "inactive"}
{"molecule": "O=C(COCCOCCOCCOc1cccc(CC(=O)Nc2cc(C3CCC3)[nH]n2)c1)NCCOCCOCCNc1cccc2c1C(=O)N(C1CCC(=O)NC1=O)C2=O (stereo not drawn)", "readout-label": "Activity", "result": "inactive"}

* * *

- target-desc: Cyclin-dependent kinase 5 (Homo sapiens)
readout-label: pIC50
Give bare numbers, as −log10 of the molar value.

Task item: What pIC50 value was documented for this compound, O=C(CCCOc1ccc(CC(=O)Nc2cc(C3CCC3)[nH]n2)cc1)NCCCCNc1cccc2c1C(=O)N(C1CCC(=O)NC1=O)C2=O (stereo unspecified) ?
Reply: 8.15

* * *

- target-desc: Cyclin-dependent kinase 5 (Homo sapiens, UniProt Q00535)
- Sequence (Q00535 whole entry): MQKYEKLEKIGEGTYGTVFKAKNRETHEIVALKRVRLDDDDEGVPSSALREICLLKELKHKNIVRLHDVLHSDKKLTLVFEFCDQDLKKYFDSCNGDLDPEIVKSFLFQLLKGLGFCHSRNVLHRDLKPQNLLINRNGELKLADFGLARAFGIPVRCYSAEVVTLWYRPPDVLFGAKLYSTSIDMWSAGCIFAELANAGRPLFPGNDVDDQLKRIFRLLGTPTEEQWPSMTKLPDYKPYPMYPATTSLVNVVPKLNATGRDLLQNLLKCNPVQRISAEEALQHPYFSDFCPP
readout-label: Kd (nM)
Answers are plain numbers, in nM.

Task item: Param item = O=C(CCCOc1ccc(CC(=O)Nc2cc(C3CCC3)[nH]n2)cc1)NCCCCNc1cccc2c1C(=O)N(C1CCC(=O)NC1=O)C2=O (stereo unspecified) ; retrieve measured Kd.
Reply: 815
